Data origin: paper PMC8080067

- STUDY SYSTEM: P450 17A1 R358Q variant (Homo sapiens, UniProt P05093, R358Q)
- Sequence (P05093 whole entry R358Q): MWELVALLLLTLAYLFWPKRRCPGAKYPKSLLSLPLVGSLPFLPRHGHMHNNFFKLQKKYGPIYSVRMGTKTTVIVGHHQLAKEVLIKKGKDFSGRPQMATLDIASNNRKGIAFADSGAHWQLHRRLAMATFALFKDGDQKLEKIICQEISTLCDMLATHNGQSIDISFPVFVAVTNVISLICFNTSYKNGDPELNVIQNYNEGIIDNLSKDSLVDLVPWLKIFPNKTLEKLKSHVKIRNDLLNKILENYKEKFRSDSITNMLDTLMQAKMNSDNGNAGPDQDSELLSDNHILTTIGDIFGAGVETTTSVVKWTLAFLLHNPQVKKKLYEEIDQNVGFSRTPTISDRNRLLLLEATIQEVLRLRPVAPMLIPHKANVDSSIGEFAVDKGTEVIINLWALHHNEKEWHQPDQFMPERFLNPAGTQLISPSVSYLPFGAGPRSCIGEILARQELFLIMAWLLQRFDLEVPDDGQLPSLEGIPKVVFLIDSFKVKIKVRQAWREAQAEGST
- RUN DESCRIPTION: Substrate-binding spectral titration (type I, ΔA388-A423)
Quick list: Kd per entry.

Study these solved cases before continuing.
INSERT INTO measurements (compound, quantity_name, val) VALUES
  ('CC(=O)[C@@]1(O)CCC2C3CC=C4C[C@@H](O)CC[C@]4(C)C3CC[C@@]21C (stereo partly drawn)', 'Kd', '260 nM'),
  ('CC(=O)[C@H]1CC[C@H]2[C@@H]3CCC4=CC(=O)CC[C@]4(C)[C@H]3CC[C@]12C', 'Kd', '260 nM');

Now turn to the next compound.
In: Returns the measured Kd for the input compound. Input: CC(=O)C1CCC2C3CC=C4C[C@@H](O)CC[C@]4(C)C3CC[C@]12C (stereo partly drawn)
Out: 150 nM
